Test: Inhibition of Escherichia coli recombinant methionine aminopeptidase expressed in Escherichia coli BL21 (DE3) using MetAMC as substrate in presence of Fe(II)
Each entry below carries its recorded IC50.
Lab book: enter the figure in µM, no units written.

Example cases with answers are listed next.
Quick one: IC50 for COc1cc(Cl)c(-c2ccc(C)s2)cc1C(=O)O ?
106

What do we get for COc1ccc(C(=O)O)cc1-c1ccc(C)s1 ?
167

What do we get for COc1cc(-c2ccc(C)s2)ccc1C(=O)O ?
270

What do we get for O=C(O)c1cc(-c2cccs2)c(Cl)cc1O ?
3.1

What do we get for Cc1ccc(-c2ccc(C(=O)O)c(O)c2)s1 ?
109

Would you kindly look at the next entry?
Quick one: IC50 for Cc1ccc(-c2ccc(C(=O)O)cc2F)s1 ?
253

----------
Each entry below carries its recorded pIC50.
Assay: Inhibition of Escherichia coli recombinant methionine aminopeptidase expressed in Escherichia coli BL21 (DE3) using MetAMC as substrate in presence of Co(II)
A value of pIC50 is the negative decimal logarithm of a concentration given in moles per litre.

Example cases with answers are listed next.
Quick one: pIC50 for COc1cc(Cl)c(-c2ccc(C)s2)cc1C(=O)O ?
4.15

What do we get for Cc1ccc(-c2ccc(C(=O)O)cc2F)s1 ?
3.48

What do we get for O=C(O)c1cc(-c2ccc(Cl)s2)c(Cl)cc1O ?
4.13

What do we get for O=C(O)c1ccc(-c2cccs2)cc1O ?
4.19

Would you kindly look at the next entry?
Quick one: pIC50 for COc1ccc(C(=O)O)cc1-c1ccc(C)s1 ?
3.33

----------
Assay: Inhibition of Escherichia coli recombinant methionine aminopeptidase expressed in Escherichia coli BL21 (DE3) using MetAMC as substrate in presence of Fe(II)
Each entry below carries its recorded IC50.

Example cases with answers are listed next.
Quick one: IC50 for Cc1ccc(-c2cc(C(=O)O)c(O)cc2Cl)s1 ?
6.8 µM

What do we get for COc1cc(-c2cccs2)ccc1C(=O)O ?
500 µM

What do we get for O=C(O)c1ccc(-c2cccs2)cc1O ?
39.1 µM

New cases:
Quick one: IC50 for O=C(O)c1ccc(-c2cc(Cl)sc2Cl)cc1O ?
29.9 µM

What do we get for O=C(O)c1ccc(-c2cccs2)c(F)c1 ?
267 µM

What do we get for COc1ccc(C(=O)O)cc1-c1cccs1 ?
192 µM

What do we get for COc1cc(Cl)c(-c2cccs2)cc1C(=O)O ?
208 µM

----------
Each entry below carries its recorded pIC50.
Assay: Inhibition of Escherichia coli recombinant methionine aminopeptidase expressed in Escherichia coli BL21 (DE3) using MetAMC as substrate in presence of Co(II)
A value of pIC50 is the negative decimal logarithm of a concentration given in moles per litre.

Quick one: pIC50 for O=C(O)c1ccc(-c2ccc(Cl)s2)c(F)c1 ?
3.78

What do we get for Cc1ccc(-c2ccc(C(=O)O)c(O)c2)s1 ?
4.09

What do we get for COc1cc(-c2cccs2)ccc1C(=O)O ?
3.60

What do we get for COc1cc(Cl)c(-c2cccs2)cc1C(=O)O ?
3.69

What do we get for O=C(O)c1ccc(-c2cccs2)c(F)c1 ?
3.60

What do we get for O=C(O)c1ccc(-c2cc(Cl)sc2Cl)cc1O ?
3.93

Would you kindly look at the next entry?
Quick one: pIC50 for COc1cc(-c2ccc(C)s2)ccc1C(=O)O ?
3.59

----------
Test: Inhibition of Escherichia coli recombinant methionine aminopeptidase expressed in Escherichia coli BL21 (DE3) using MetAMC as substrate in presence of Fe(II)
measurement label: IC50

Example cases with answers are listed next.
Quick one: IC50 for COc1cc(-c2cc(Cl)sc2Cl)ccc1C(=O)O ?
> 500 µM

What do we get for O=C(O)c1cc(-c2ccc(Cl)s2)c(Cl)cc1O ?
4.9 µM

What do we get for O=C(O)c1ccc(-c2ccc(Cl)s2)c(F)c1 ?
203 µM

What do we get for O=C(O)c1ccc(-c2cccs2)cc1 ?
> 500 µM

Would you kindly look at the next entry?
Quick one: IC50 for O=C(O)c1ccc(-c2ccc(Cl)s2)cc1O ?
73 µM

----------
Test: Inhibition of Escherichia coli recombinant methionine aminopeptidase expressed in Escherichia coli BL21 (DE3) using MetAMC as substrate in presence of Co(II)
measurement label: IC50 (µM)
Lab book: enter the figure in µM, no units written.

Example cases with answers are listed next.
Quick one: IC50 for Cc1ccc(-c2cc(C(=O)O)c(O)cc2Cl)s1 ?
77.4

What do we get for O=C(O)c1cc(-c2cccs2)c(Cl)cc1O ?
88.1

What do we get for O=C(O)c1ccc(-c2cccs2)cc1 ?
249

What do we get for O=C(O)c1ccc(-c2ccc(Cl)s2)cc1O ?
87.7

New cases:
Quick one: IC50 for COc1cc(-c2cc(Cl)sc2Cl)ccc1C(=O)O ?
290
